Where do these numbers come from? They come from patent US10370401B2.

The entries below are paired with their reported IC50.
target: NS5B570-Con1 (Delta-21) (Hepatitis C virus genotype 1b, UniProt Q9WMX2); experiment: biochemical

Worked examples, 2 compounds total:
Nc1ccn([C@@H]2O[C@](CF)(COP(=O)(O)OP(=O)(O)OP(=O)(O)O)[C@@H](O)C2(F)F)c(=O)n1: 10 to 100 µM
C#C[C@@]1(O)[C@H](O)[C@@H](COP(=O)(O)OP(=O)(O)OP(=O)(O)O)O[C@H]1n1ccc2c(N)ncnc21: < 1 µM

What the record says about `Nc1ncnc2c1ncn2[C@@H]1O[C@H](COP(=O)(O)OP(=O)(O)OP(=O)(O)O)[C@@H](O)[C@]1(O)CF` : IC50 is 1 to 10 µM

What the record says about `C[C@]1(O)[C@H](n2cnc3c(=O)[nH]c(N)nc32)O[C@](F)(COP(=O)(O)OP(=O)(O)OP(=O)(O)O)[C@H]1F` : IC50 is < 1 µM

What the record says about `C[C@]1(O)[C@H](n2ccc(=O)[nH]c2=O)O[C@@](COP(=O)(O)OP(=O)(O)OP(=O)(O)O)(C(F)F)[C@H]1O` : IC50 is 10 to 100 µM

What the record says about `C#C[C@]1(O)[C@H](n2cnc3c(=O)[nH]c(N)nc32)O[C@](F)(COP(=O)(O)OP(=O)(O)OP(=O)(O)O)[C@H]1F` : IC50 is < 1 µM

What the record says about `C[C@]1(COP(=O)(O)OP(=O)(O)OP(=O)(O)O)O[C@@H](n2ccc(N)nc2=O)C(F)(F)[C@@H]1O` : IC50 is 10 to 100 µM

---

molecular target: human rhinovirus 16 polymerase (HRV16pol) (Human rhinovirus 16, UniProt Q82122); assay: biochemical; details: HRV16pol, 2.5 h at 30° C., mean of several independent experiments; read-out: IC50
Sequence (Q82122 1694-2153 limits assumed): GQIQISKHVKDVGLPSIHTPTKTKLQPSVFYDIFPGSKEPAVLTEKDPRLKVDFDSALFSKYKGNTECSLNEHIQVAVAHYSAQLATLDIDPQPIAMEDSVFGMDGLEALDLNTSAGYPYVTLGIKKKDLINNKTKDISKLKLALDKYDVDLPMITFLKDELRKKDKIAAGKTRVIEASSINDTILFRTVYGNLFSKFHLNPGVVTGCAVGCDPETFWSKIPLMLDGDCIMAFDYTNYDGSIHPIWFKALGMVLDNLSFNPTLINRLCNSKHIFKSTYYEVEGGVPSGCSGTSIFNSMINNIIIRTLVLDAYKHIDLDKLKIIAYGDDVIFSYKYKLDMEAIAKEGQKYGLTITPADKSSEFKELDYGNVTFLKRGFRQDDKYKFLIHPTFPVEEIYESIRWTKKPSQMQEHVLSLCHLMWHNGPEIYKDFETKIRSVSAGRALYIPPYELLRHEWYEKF
pIC50: −log10 of the molar value.
The entries below are paired with their reported pIC50.

What the record says about C#C[C@@]1(O)[C@H](O)[C@@](CF)(COP(=O)(O)OP(=O)(O)OP(=O)(O)O)O[C@H]1n1ccc(=O)[nH]c1=O [compound 61] : pIC50 is > 6.00

What the record says about C#C[C@@]1(O)[C@H](O)[C@@H](COP(=O)(O)OP(=O)(O)OP(=O)(O)O)O[C@H]1n1cnc2c(N)ncnc21 [compound 202] : pIC50 is > 6.00

What the record says about C[C@@]1(O)[C@H](O)[C@@](CF)(COP(=O)(O)OP(=O)(O)OP(=O)(O)O)O[C@H]1n1ccc(N)nc1=O [compound 91] : pIC50 is > 5.00

What the record says about C[C@]1(O)[C@H](n2cnc3c(N)ncnc32)O[C@](F)(COP(=O)(O)OP(=O)(O)OP(=O)(O)O)[C@H]1O [compound 240] : pIC50 is > 6.00

What the record says about C=C[C@]1(O)[C@H](n2ccc(=O)[nH]c2=O)O[C@](F)(COP(=O)(O)OP(=O)(O)OP(=O)(O)O)[C@H]1O [compound 236] : pIC50 is > 5.00

What the record says about Nc1ncnc2c1ncn2[C@@H]1O[C@H](COP(=O)(O)OP(=O)(O)OP(=O)(O)O)[C@@H](O)[C@]1(O)CF [compound 278] : pIC50 is > 4.00
